Target Or Test System: HLA-A*02:01
Assay Overview: IEDB peptide-MHC binding, purified MHC/competitive/radioactivity; bounds were set here for any values at or beyond the usual limits of such assays
Condition Details: source organism: Vaccinia virus WR
Value Kind: IC50

VMTPSPFYT ... 2660 nM

Let us move to another entry and its IC50.
Ask: Item TIATYIDALA has what recorded IC50?
Reply: 125 nM

----------
Target Or Test System: HLA-A*02:02
Assay Overview: IEDB peptide-MHC binding, cellular MHC/competitive/fluorescence; bounds were set here for any values at or beyond the usual limits of such assays
Condition Details: source organism: Vaccinia virus WR
Value Kind: IC50

GIDTSNNIA ... 49.7 µM
EALYYVHSL ... 14.2 µM
NTGMGMYYPT ... 23.4 µM

Ask: Endpoint output: IC50 of HTKFWISDNT . Value?
Reply: 21.5 µM

Ask: Param item = TTELNIVDEI ; retrieve measured IC50.
Reply: 38.7 µM

Ask: Report IC50 for YTEAAAATCA please.
Reply: 36.5 µM

Ask: Query (sequence): TVDFTDCRT ; field requested: IC50
Reply: 9.68 µM

Ask: I have this sequence here, NTFVNFNSV , and I need its recorded IC50.
Reply: 5.02 µM

Ask: For LVSKHWELT , what is its reported IC50?
Reply: 12.2 µM

Ask: // lookup IC50 for KTNTKHCPKI
Reply: 33.8 µM

Ask: Dear colleague, I am looking for the recorded IC50 of the following sequence: ETNIGCAVNT
Reply: ≥ 70 µM

Ask: Form field: reported IC50 of PAMSTYSDI
Reply: 18.3 µM

Ask: Using the record for EVRYIDITNI , report its IC50.
Reply: 12.9 µM

Ask: # query: IC50 of entry KTEHCDDFMT
Reply: 7.82 µM
